Readout type: Ki (nM)
Answer with a number only, understood to be in nM.

q: Kindly state the measured Ki obtained for CC(C)Cc1ccc(C(C)C(=O)OCCOc2ccc3oc(=O)ccc3c2)cc1 (racemic) with Carbonic anhydrase 9 (Homo sapiens).
a: 25.3

q: Report Ki for CC(C(=O)OCCOc1ccc2oc(=O)ccc2c1)c1cccc(C(=O)c2ccccc2)c1 (racemic) tested on Carbonic anhydrase 9 (Homo sapiens).
a: 36.9

q: Form entry - test system: Carbonic anhydrase 9 (Homo sapiens); read-out: Ki; compound: CC(C(=O)OCCOc1ccc2ccc(=O)oc2c1)c1cccc(C(=O)c2ccccc2)c1 (racemic)
a: 35.4

q: For the record CC(C)Cc1ccc(C(C)C(=O)OCCOc2ccc3ccc(=O)oc3c2)cc1 (racemic) , what value of Ki is listed for Carbonic anhydrase 9 (Homo sapiens)?
a: 3.9
